Target: human TLR7 (Homo sapiens)
Sequence (Q9NYK1 27-1049): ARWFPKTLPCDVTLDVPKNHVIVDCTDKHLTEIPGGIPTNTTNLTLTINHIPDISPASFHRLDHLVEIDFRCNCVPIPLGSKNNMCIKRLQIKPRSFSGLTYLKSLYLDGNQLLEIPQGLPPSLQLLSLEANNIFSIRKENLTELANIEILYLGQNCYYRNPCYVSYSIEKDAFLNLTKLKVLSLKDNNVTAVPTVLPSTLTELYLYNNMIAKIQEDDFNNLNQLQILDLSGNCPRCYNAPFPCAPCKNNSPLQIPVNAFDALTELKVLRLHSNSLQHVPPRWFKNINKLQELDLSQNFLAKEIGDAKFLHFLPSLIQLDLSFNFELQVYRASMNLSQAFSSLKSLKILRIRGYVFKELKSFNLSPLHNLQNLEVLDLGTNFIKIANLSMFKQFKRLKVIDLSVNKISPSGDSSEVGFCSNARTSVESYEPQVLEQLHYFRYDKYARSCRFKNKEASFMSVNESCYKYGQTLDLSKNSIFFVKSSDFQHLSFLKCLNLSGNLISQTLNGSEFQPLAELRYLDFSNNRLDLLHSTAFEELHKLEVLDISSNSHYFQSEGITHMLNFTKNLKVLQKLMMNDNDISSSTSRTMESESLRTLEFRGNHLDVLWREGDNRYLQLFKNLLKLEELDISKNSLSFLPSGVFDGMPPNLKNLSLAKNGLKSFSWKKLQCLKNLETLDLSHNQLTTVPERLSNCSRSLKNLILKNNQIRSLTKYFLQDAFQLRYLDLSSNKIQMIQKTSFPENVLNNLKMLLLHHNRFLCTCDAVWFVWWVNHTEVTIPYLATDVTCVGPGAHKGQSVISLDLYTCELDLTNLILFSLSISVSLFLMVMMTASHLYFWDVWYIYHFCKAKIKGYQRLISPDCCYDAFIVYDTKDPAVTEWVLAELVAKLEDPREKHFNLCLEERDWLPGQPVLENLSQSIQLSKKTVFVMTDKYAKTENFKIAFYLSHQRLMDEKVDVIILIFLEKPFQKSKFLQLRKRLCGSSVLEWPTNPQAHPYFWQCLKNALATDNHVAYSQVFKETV
Assay: HEK293-Blue-hTLR-7 cells assay
Conditions: HEK293-Blue-hTLR7 cells, R848 stimulation, 20 hrs, SEAP reporter; read-out: HEK/hTLR7 IC50
Description: HEK293-Blue-hTLR-7 cells assay: A stable HEK293-Blue-hTLR-7 cell line was purchased from InvivoGen (Cat. #: hkb-htlr7, San Diego, Calif., USA). […] The cell culture supernatant SEAP reporter activity was determined using QUANTI-Blue™ kit (Cat. #: rep-qb1, Invivogen, San Diego, Ca, USA) at a wavelength of 640 nm, a detection medium that turns purple or blue in the presence of alkaline phosphatase. […]
In this section we review reported IC50 values for a set of compounds.
Answer in µM, number only, no unit symbol.

| query-smiles | experimental-system | measured |
| --- | --- | --- |
| C[C@@H]1CN(c2ccc(C#N)c3ncccc23)C[C@H](CN2CC(n3cc4c(n3)C[C@H](C)NC4)C2)O1 | human TLR7 (Homo sapiens) | 0.019 |
| CC(C)N1CCc2cnn(C3CN(C[C@H]4CN(c5ccc(C#N)c6ncccc56)C[C@@H](C)O4)C3)c2C1 | human TLR7 (Homo sapiens) | 0.018 |

Now consider a different compound.
// IC50 value for "Cc1c2c(nn1C1CN(C[C@H]3CN(c4ccc(C#N)c5ncccc45)C[C@@H](C)O3)C1)CCNC2" : 0.014

All values here come from patent US20210300924A1.
